assay-overview: qHTS for Inhibitors of human tyrosyl-DNA phosphodiesterase 1 (TDP1): qHTS in cells in presence of CPT; note: nearly all actives have a fitted effect of over 55% in size
measurement-parameters: chicken DT40 Tdp1-/-;hTDP1 cells + 20 nM CPT, ATP luminescence, 48 h; series mostly up to 46.2 µM
Among all 420,000 compounds or so, about 50,000 (12%) were called active. Inconclusive results (about 26%) are left out. Calls come from the whole dose curve; as a rule, active = well fitted inhibition curve with a large enough effect; inconclusive = small, poorly fitted or top-dose-only effect; inactive = flat fitted curve, though single readings scatter. The full list was thinned out, with actives kept by preference.
Field 'call' accepts YES (active), NO (inactive)

molecule=Cc1nc2nc(C)c(CCC(=O)N3CCC4(CC3)OCCO4)c(C)n2n1 label_class=NO
molecule=O=C(Nc1ccc(Cl)cc1C(=O)c1ccccc1)c1cc(Cl)cc(Cl)c1 label_class=NO
molecule=C=CCN(CC=C)C(=O)Nc1ccc(OCC)cc1 label_class=NO
molecule="CCNc1nc2[nH]c(=O)c3c(c2s1)OC(N)=C(C#N)C3c1cccs1 (stereo not given)" label_class=NO
molecule=Cc1ccc(C)c(NC2=NCCCS2)c1 label_class=NO
molecule=COC(=O)C1=C(c2ccccc2)C[C@@H]2CC[C@H]1N2C(=O)NCc1ccco1 label_class=NO

Okay, next one:
Task: Hi, do you know how `COC(=O)C1=C(c2cccc(OCc3ccccc3)c2)C[C@@H]2CC[C@H]1N2C(=O)NNCc1ccccc1` came out in this test?
Output: YES

* * *

assay-overview: qHTS for Inhibitors of human tyrosyl-DNA phosphodiesterase 1 (TDP1): qHTS in cells in presence of CPT; note: nearly all actives have a fitted effect of over 55% in size
measurement-parameters: chicken DT40 Tdp1-/-;hTDP1 cells + 20 nM CPT, ATP luminescence, 48 h; series mostly up to 46.2 µM
The campaign covered roughly 420,000 compounds. About 50,000 (12%) were called active. Roughly 26% stayed inconclusive and do not appear here. The call rests on the fitted dose curve; in most records, active means well fitted inhibition curve with a large enough effect; inconclusive means small, poorly fitted or top-dose-only effect; inactive means flat fitted curve, though single readings scatter. The entries come from a sample that favours actives as a whole.
Field 'call' accepts Y = active, N = inactive

Worked examples, 3 molecules total:
molecule=CC(=CCOc1ccc2ccc(=O)oc2c1)C1=CC(=O)C(C)(C)O1 label_class=Y
molecule="Cc1ccc(-n2c(O)c(C=NCC3CCCO3)c(=O)[nH]c2=O)c(C)c1 (configuration not stated)" label_class=N
molecule=CN(C)C(=O)Oc1ccc2c(c1)O/C(=C\c1ccccc1)C2=O label_class=N

Task: Hi, do you know how `CCOC(=O)c1c(N)n(CCN2CCOCC2)c2nc3ccccc3nc12` came out in this test?
Output: N

Task: Hi, do you know how `CCCCn1c(O)c(C(CC)=NCc2ccco2)c(=O)[nH]c1=O` came out in this test?
Output: N

Task: Hi, do you know how `O=C(COc1ccc2ccccc2c1)N1CCN(Cc2ccncc2)CC1` came out in this test?
Output: N

Task: Hi, do you know how `COc1ccc(-n2c(-c3ccccc3)nc3ccccc3c2=O)cc1` came out in this test?
Output: Y

Task: Hi, do you know how `C=CCN1C(=O)NC(=O)/C(=C/c2ccc(OCC(=O)Nc3ccc(C)cc3)cc2)C1=O` came out in this test?
Output: N

Task: Hi, do you know how CCC1(CC(C)c2ccccc2)C(=O)NC(=O)NC1=O (configuration not stated) came out in this test?
Output: N

Task: Hi, do you know how CN(C)CC1Oc2ccccc2OC1(O)c1ccccc1 (configuration not stated) came out in this test?
Output: Y

Task: Hi, do you know how `CCN1CCN(Cc2cc(OC)c3c(c2)OCO3)CC1` came out in this test?
Output: N

Task: Hi, do you know how `C=Cn1ccnc1P(=S)(c1cc(N(CC)CC)ns1)c1nccn1C=C` came out in this test?
Output: N

Task: Hi, do you know how CN(C)P(=S)(Nc1ccccc1)C(Cl)(Cl)Cl (configuration not stated) came out in this test?
Output: N

Task: Hi, do you know how `CCC(=NCCCO)c1c(O)n(-c2ccc(OC)cc2)c(=O)[nH]c1=O` came out in this test?
Output: N

Task: Hi, do you know how `N[C@H](Cc1o[nH]c(=O)c1Cl)C(=O)O` came out in this test?
Output: N

Task: Hi, do you know how Cc1ccc(N2C(=O)NC(=O)C(CCc3ccncc3)(Cc3cccc(Cl)c3Cl)C2=O)cc1 (configuration not stated) came out in this test?
Output: N

Task: Hi, do you know how Cc1cc2ccccn2c1C(C[N+](=O)[O-])c1c(F)cccc1Cl (configuration not stated) came out in this test?
Output: Y

Task: Hi, do you know how `O=c1[nH]c(=O)n(CCc2ccc(F)cc2)c(O)c1/C=N/N1CCCCC1` came out in this test?
Output: N

Task: Hi, do you know how `O=C(Cc1ccc(Cl)cc1)NCCN1CCN(C(=O)Cc2ccc(Cl)cc2)CC1` came out in this test?
Output: N

* * *

assay-overview: qHTS for Inhibitors of human tyrosyl-DNA phosphodiesterase 1 (TDP1): qHTS in cells in presence of CPT; note: nearly all actives have a fitted effect of over 55% in size
measurement-parameters: chicken DT40 Tdp1-/-;hTDP1 cells + 20 nM CPT, ATP luminescence, 48 h; series mostly up to 46.2 µM
The whole screen tested about 420,000 compounds, of which about 50,000 (12%) were called active. Another 26% or so got no clear call; they are omitted. Calls follow the shape of the dose curve; as a rule, active = well fitted inhibition curve with a large enough effect; inconclusive = small, poorly fitted or top-dose-only effect; inactive = flat fitted curve, though single readings scatter. The sample as a whole holds a higher share of actives than the screen did.
Field 'call' accepts True = active, False = inactive

Worked examples, 5 molecules total:
molecule=O=C(c1cc(S(=O)(=O)N2CCOCC2)ccc1F)N1CCC2(CC1)OCCO2 label_class=False
molecule="CC1CC=CCC12C(=O)NC(=S)NC2=O (stereo unspecified)" label_class=False
molecule=O=C(N/N=C/c1c(O)n(Cc2ccccc2)c(=O)[nH]c1=O)c1ccccc1 label_class=False
molecule=CC[N+]1(CCOC(=O)C(O)(c2ccccc2)c2ccccc2)CCCCC1 label_class=False
molecule="COCCNC(=O)CN1C2CCC1CC(O)(c1cccnc1)C2 (stereo unspecified)" label_class=False

Task: Hi, do you know how CCOP(=O)(OCC)C(O)c1ccc(OC)cc1OC (stereo unspecified) came out in this test?
Output: False

* * *

assay-overview: qHTS for Inhibitors of human tyrosyl-DNA phosphodiesterase 1 (TDP1): qHTS in cells in presence of CPT; note: nearly all actives have a fitted effect of over 55% in size
measurement-parameters: chicken DT40 Tdp1-/-;hTDP1 cells + 20 nM CPT, ATP luminescence, 48 h; series mostly up to 46.2 µM
Procedure: Human tyrosyl-DNA phosphodiesterase 1 (TDP1) is a novel repair gene, and we propose to use it as a new target for anticancer drug development. […] For the primary screen, Tdp1-/-;hTDP1 cells will be exposed to small molecules in the presence or absence of CPT, and their growth kinetics will be evaluated after 48 hours by measuring ATP activity. […] The hit compounds will then be evaluated in the presence or absence of CPT using Tdp1-/- cells. […]
Screen size: about 420,000 compounds; about 50,000 (12%) were called active. Not shown: some 26% with an inconclusive outcome. Calls follow the shape of the dose curve; as a rule, active = well fitted inhibition curve with a large enough effect; inconclusive = small, poorly fitted or top-dose-only effect; inactive = flat fitted curve, though single readings scatter. This excerpt belongs to a sample that is enriched for actives.
Field 'call' accepts true for active, false for inactive

compound=OC[C@@H]1CN(Cc2ccncc2)C[C@H](n2cnc3c(N4CCN(c5ccccc5)CC4)ncnc32)O1 label_class=true
compound="CC(Cc1cccs1)NCc1ccc(Cl)cc1 (stereo not given)" label_class=false
compound=COc1ccccc1-n1c(O)c(C=NC2CC2)c(=O)[nH]c1=O label_class=false
compound=O=C1CC(=O)N(Cc2ccccc2)C(=O)N1CCCCCCN1C(=O)CC(=O)N(Cc2ccccc2)C1=O label_class=false
compound=c1ccc2sc(SNC3CCCCC3)nc2c1 label_class=false

Task: Hi, do you know how `O=C(CCC(=O)N1C[C@H]2C[C@@H](C1)c1cccc(=O)n1C2)NCc1ccccc1C(F)(F)F` came out in this test?
Output: false

Task: Hi, do you know how COC1C(O)C(C)OC(OC2CCC3(C=O)C(CCC4C3CCC3(C)C(C5=CC(=O)OC5)CCC43O)C2)C1O (stereo not given) came out in this test?
Output: true

Task: Hi, do you know how Cc1ccc(Cl)cc1N1CCN(C(=O)C2CCC(CNS(=O)(=O)c3cccs3)CC2)CC1 (stereo not given) came out in this test?
Output: true

Task: Hi, do you know how `CC(C)N(CC#CCC1(O)c2ccccc2-c2ccccc21)C(C)C` came out in this test?
Output: false

* * *

assay-overview: qHTS for Inhibitors of human tyrosyl-DNA phosphodiesterase 1 (TDP1): qHTS in cells in presence of CPT; note: nearly all actives have a fitted effect of over 55% in size
measurement-parameters: chicken DT40 Tdp1-/-;hTDP1 cells + 20 nM CPT, ATP luminescence, 48 h; series mostly up to 46.2 µM
The whole screen tested about 420,000 compounds, of which about 50,000 (12%) were called active. Not shown: some 26% with an inconclusive outcome. Calls follow the shape of the dose curve; as a rule, active = well fitted inhibition curve with a large enough effect; inconclusive = small, poorly fitted or top-dose-only effect; inactive = flat fitted curve, though single readings scatter. Shown is part of a subset that was picked to be rich in actives.
Field 'call' accepts active, inactive

Worked examples, 3 molecules total:
molecule="CC(=NCC1CCCO1)c1c(O)n(-c2ccccc2)c(=O)[nH]c1=O (configuration not stated)" label_class=inactive
molecule="Cc1ccsc1C(=O)C1CCCN(Cc2ccc(O)cc2)C1 (configuration not stated)" label_class=inactive
molecule="COc1ccc(C2Oc3c(I)c(OC)cc(OC)c3CC2O)cc1OC (configuration not stated)" label_class=inactive

Task: Hi, do you know how `CC(=C1C(=O)c2ccccc2C1=O)N1CCN(CCN=Cc2c(O)n(C)c(=O)n(C)c2=O)CC1` came out in this test?
Output: inactive

Task: Hi, do you know how CC1CCCN1CCC(C(N)=O)(c1ccccc1)c1ccccc1 (configuration not stated) came out in this test?
Output: inactive

Task: Hi, do you know how `CC(C)(c1ccc(OC[C@@H]2CO2)cc1)c1ccc(OC[C@H]2CO2)cc1` came out in this test?
Output: active

Task: Hi, do you know how CC1C2Cn3c(nc4ccccc43)C1N(C)O2 (configuration not stated) came out in this test?
Output: inactive

Task: Hi, do you know how `CC1=CC(=Cc2sc3ccccc3[n+]2C)C=C(C)O1` came out in this test?
Output: active

Task: Hi, do you know how `Cc1nc2ccccc2c(=O)n1-c1ccc(Cl)cc1Cl` came out in this test?
Output: active

Task: Hi, do you know how Cc1cc2n(n1)C(c1cc(C(C)(C)C)c(O)cc1O)Nc1ccccc1-2 (configuration not stated) came out in this test?
Output: active

Task: Hi, do you know how `O=c1[nH]c(=S)[nH]c(O)c1/C=C1\C=Nc2ccccc21` came out in this test?
Output: active

Task: Hi, do you know how `COc1cc(-n2c(=S)[nH]c3ccc(C)cc3c2=O)c(Cl)cc1Cl` came out in this test?
Output: active

Origin of measurements: PubChem BioAssay AID686979
